- ASSAY_TARGET: NDM-1 (Klebsiella pneumoniae)
- Sequence (C7C422 whole entry, looked up, species assumed): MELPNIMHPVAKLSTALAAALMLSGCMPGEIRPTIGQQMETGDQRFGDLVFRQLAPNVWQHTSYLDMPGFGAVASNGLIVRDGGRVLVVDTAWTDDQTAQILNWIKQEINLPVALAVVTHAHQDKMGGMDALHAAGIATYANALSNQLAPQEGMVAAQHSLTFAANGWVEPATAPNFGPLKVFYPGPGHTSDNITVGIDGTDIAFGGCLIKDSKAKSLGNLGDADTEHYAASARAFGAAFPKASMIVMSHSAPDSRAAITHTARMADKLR
- PROTOCOL: biochemical
- REPORTED_CONDITIONS: 50 μM compound, 5 nM MBL, 10 μM nitrocefin, 30 mins; read-out: NDM-1 percentage inhibition
Lab note: anything with inhibition at 50 µM at or over 50% counts as True; the rest go in False.

>>> answer_label("Cc1nc2ccccc2c(=O)n1O [Compound 19]")
"False"
>>> answer_label("Cc1cc(C(=O)O)nc2[nH][nH]c(=O)c12 [Compound 30]")
"True"
>>> answer_label("CC(C)Cc1cc(C(=O)O)nc(O)n1 [Compound 26]")
"True"
>>> answer_label("O=c1c(-c2ccco2)[n+]([O-])c2ccccc2n1O [Compound 22]")
"False"
>>> answer_label("CCOC(=O)CS [Compound 2]")
"True"
>>> answer_label("Cc1ccc(O)c(CO)n1 [Compound 28]")
"True"
>>> answer_label("Sc1nccc(-c2cccs2)n1 [Compound 10]")
"False"

---

- ASSAY_TARGET: VIM-2 (Pseudomonas aeruginosa, UniProt Q5U7L7)
- PROTOCOL: biochemical
- REPORTED_CONDITIONS: 50 μM compound, 5 nM MBL, 10 μM nitrocefin, 30 mins
- Description: The pET24a-VIM-2 plasmid was transformed into competent BL21 (DE3) E. coli cells. The cells were plated onto an LB-agar plate with kanamycin (25 μg/mL) and incubated overnight at 37° C. […] The sample was loaded onto the column, and proteins were eluted with a linear gradient 0-500 mM NaCl with buffer B. Fractions containing VIM-2, determined by SDS-PAGE, were pooled and concentrated to 2-3 mL in an Amicon ultraconcentrator equipped YM-10 membrane. […]
// VIM-2 percentage inhibition lookup, one value per entry
RESULT_TYPE: VIM-2 percentage inhibition (%)

>>> result_value("Oc1ccc(Cl)c2cccnc12")
98
>>> result_value("O=[N+]([O-])c1ccc(O)c2ncccc12")
86
>>> result_value("Oc1c(Cl)cc(Cl)c2cccnc12")
96
>>> result_value("O=C(O)c1ccnc2c(O)cccc12")
92
>>> result_value("Cc1ccc2c(Cl)cc(Cl)c(O)c2n1")
95
>>> result_value("Oc1ccnc2ccccc12")
9
>>> result_value("[O-][n+]1cccc2cccc(O)c21")
27
>>> result_value("Oc1ccc2ncccc2c1")
7
>>> result_value("Oc1cccc2ncccc12")
6
>>> result_value("Oc1ccc2cccnc2c1")
3
>>> result_value("Oc1c(I)cc(Cl)c2cccnc12 [Compound 48, Clioquinol, reference compound]")
93
>>> result_value("Nc1ccc(O)c2ncccc12")
96

---

# reported inhibition at 50 µM; entries follow
- ASSAY_TARGET: VIM-2 (Pseudomonas aeruginosa)
- PROTOCOL: biochemical
- REPORTED_CONDITIONS: 50 μM compound, 5 nM MBL, 10 μM nitrocefin, 30 mins; read-out: VIM-2 percentage inhibition
RESULT_TYPE: inhibition at 50 µM (%)

>>> result_value("O=C1c2ccccc2C(=O)N1O")
18
>>> result_value("O=C(O)c1c(O)cccc1O")
4
>>> result_value("CC(S)C(=O)O (stereo not drawn)")
17

Where these numbers come from: patent US12377086B2
